The measurements presented in this section are drawn from ChEMBL document CHEMBL5550097.

- assay.remarks: Drug accumulation in pig LLC-PK1 cells by LC-MS/MS analysis
- Assay type: ADME, cell-based, Sus scrofa

[
  {
    "compound.structure.string": "NC1(c2ccc(-c3nc4ccn5c(=O)[nH]nc5c4cc3-c3ccccc3)cc2)CCC1",
    "Drug uptake (uL/cm2)": 34.5
  },
  {
    "compound.structure.string": "Cc1c(=O)n(C)c(Nc2ccc(I)cc2F)c2c(=O)n(C3CC3)c(=O)n(-c3cccc(NC(=O)CCCCCNC[C@H](Cc4cccc(F)c4)NC(=O)c4cc(-c5c(Cl)cnn5C)c(Cl)s4)c3)c12",
    "Drug uptake (uL/cm2)": 4.63
  },
  {
    "compound.structure.string": "Cn1ncc(Cl)c1-c1cc(C(=O)N[C@H](CN)Cc2cccc(F)c2)sc1Cl",
    "Drug uptake (uL/cm2)": 37.3
  },
  {
    "compound.structure.string": "Cc1c(=O)n(C)c(Nc2ccc(I)cc2F)c2c(=O)n(C3CC3)c(=O)n(-c3cccc(NC(=O)CCCCCNC4(c5ccc(-c6nc7ccn8c(=O)[nH]nc8c7cc6-c6ccccc6)cc5)CCC4)c3)c12",
    "Drug uptake (uL/cm2)": 15.9
  }
]
